- System tested: kappa-opioid receptor (KOR) (Cavia porcellus)
- Construct: Guinea pig cortices and cerebella were homogenized using 50 mM Tris, pH 7.4; from tissue; host or cells: guinea pig cortex and cerebellum membranes
- Assay protocol: KOR radioligand competition binding assay ([3H]U69,593)
- Set-up: species or system guinea pig
- Details: Kappa screening results, mean of two experiments; read-out: Ki
Task for the reader: assign each of the following molecules its reported pKi.
Interpret pKi as the negative base-10 log of the concentration measured in mol/L.

Given the entry Cc1cc(O)cc(C)c1C[C@H]1CN([C@@H](Cc2ccc(O)cc2)CN2C(=N)NC[C@@H]2Cc2ccccc2)C(=N)N1 , report its measured pKi.
6.61

And the next one, Cc1cc(O)cc(C)c1C[C@@H](CN1C(=N)NC[C@@H]1C)N1C[C@H](Cc2ccc(O)cc2)NC1=N ?
6.57

And the next one, CC(C)C[C@@H](CN1C(=N)NC[C@@H]1Cc1ccc(O)cc1)N1C[C@H](Cc2ccc(O)cc2)NC1=N ?
4.84

And the next one, CC(C)C[C@@H](CN1C(=N)NC[C@@H]1C)N1C[C@H](Cc2ccc(O)cc2)NC1=N ?
4.91

And the next one, Cc1cc(O)cc(C)c1C[C@H]1CNC(=N)N1C[C@H](Cc1c(C)cc(O)cc1C)N1C[C@H](Cc2ccc(O)cc2)NC1=N ?
5.63

And the next one, Cc1cc(O)cc(C)c1C[C@H]1CN([C@@H](Cc2ccc(O)cc2)CN2C(=N)NC[C@@H]2Cc2c(C)cc(O)cc2C)C(=N)N1 ?
6.00

And the next one, Cc1cc(O)cc(C)c1C[C@H]1CN([C@@H](CC(C)C)CN2C(=N)NC[C@@H]2Cc2ccc(O)cc2)C(=N)N1 ?
5.95

And the next one, Cc1cc(O)cc(C)c1C[C@H]1CN([C@@H](CC(C)C)CN2C(=N)NC[C@@H]2Cc2ccccc2)C(=N)N1 ?
5.94

And the next one, C[C@H]1CNC(=N)N1C[C@H](Cc1ccccc1)N1C[C@H](Cc2ccc(O)cc2)NC1=N ?
5.11

And the next one, CC(C)C[C@H]1CN([C@@H](Cc2ccccc2)CN2C(=N)NC[C@@H]2C)C(=N)N1 ?
4.36

And the next one, N=C1NC[C@H](Cc2ccccc2)N1C[C@H](Cc1ccc(O)cc1)N1C[C@H](Cc2ccc(O)cc2)NC1=N ?
5.36

And the next one, Cc1cc(O)cc(C)c1C[C@H]1CNC(=N)N1C[C@H](CC(C)C)N1C[C@H](CC(C)C)NC1=N ?
6.57

And the next one, Cc1cc(O)cc(C)c1C[C@@H](CN1C(=N)NC[C@@H]1Cc1ccc(O)cc1)N1C[C@H](Cc2ccccc2)NC1=N ?
5.84

And the next one, C[C@H]1CNC(=N)N1C[C@H](Cc1ccccc1)N1C[C@H](Cc2ccccc2)NC1=N ?
4.82

* * *

- System tested: kappa-opioid receptor (KOR) (Cavia porcellus)
- Construct: Guinea pig cortices and cerebella were homogenized using 50 mM Tris, pH 7.4; from tissue; host or cells: guinea pig cortex and cerebellum membranes
- Assay protocol: KOR radioligand competition binding assay ([3H]U69,593)
- Design: species or system guinea pig
- Details: Kappa screening results, mean of Exp 1 and Exp 2; unit inferred; read-out: MEAN (Ki)
Task for the reader: assign each of the following compounds its reported log10 of Ki.
Please interpret these as log10 of Ki where Ki is in nM.

Given the entry Cc1cc(O)cc(C)c1C[C@H]1CN([C@@H](Cc2ccc(O)cc2)CN2C(=N)NC[C@@H]2Cc2ccccc2)C(=N)N1 , report its measured log10 of Ki.
2.39

And the next one, Cc1cc(O)cc(C)c1C[C@H]1CN([C@@H](Cc2ccc(O)cc2)CN2C(=N)NC[C@@H]2Cc2c(C)cc(O)cc2C)C(=N)N1 ?
3.00

And the next one, Cc1cc(O)cc(C)c1C[C@H]1CN([C@@H](Cc2ccccc2)CN2C(=N)NC[C@@H]2Cc2ccc(O)cc2)C(=N)N1 ?
2.91

And the next one, CC(C)C[C@H]1CN([C@@H](CC(C)C)CN2C(=N)NC[C@@H]2Cc2ccc(O)cc2)C(=N)N1 ?
3.66

And the next one, Cc1cc(O)cc(C)c1C[C@H]1CN([C@@H](CC(C)C)CN2C(=N)NC[C@@H]2Cc2ccccc2)C(=N)N1 ?
3.06

And the next one, N=C1NC[C@H](Cc2ccc(O)cc2)N1C[C@H](Cc1ccc(O)cc1)N1C[C@H](Cc2ccccc2)NC1=N ?
3.54

And the next one, Cc1cc(O)cc(C)c1C[C@H]1CNC(=N)N1C[C@H](Cc1c(C)cc(O)cc1C)N1C[C@H](CC(C)C)NC1=N ?
3.19

* * *

- System tested: kappa-opioid receptor (KOR) (Cavia porcellus)
- Construct: Guinea pig cortices and cerebella were homogenized using 50 mM Tris, pH 7.4; from tissue; host or cells: guinea pig cortex and cerebellum membranes
- Assay protocol: KOR radioligand competition binding assay ([3H]U69,593)
- Design: species or system guinea pig
- Details: Kappa screening results, experiment 2; unit inferred; read-out: Ki (Exp 2)
Outcome measure: log10 Ki (log10 of the value in nM)
Please interpret these as log10 of Ki where Ki is in nM.

Given the entry Cc1cc(O)cc(C)c1C[C@H]1CN([C@@H](CC(C)C)CN2C(=N)NC[C@@H]2Cc2ccc(O)cc2)C(=N)N1 [1968-28] , report its measured log10 Ki.
3.15

And the next one, C[C@H]1CNC(=N)N1C[C@H](Cc1ccccc1)N1C[C@H](Cc2ccccc2)NC1=N [1968-33] ?
4.15

And the next one, Cc1cc(O)cc(C)c1C[C@H]1CN([C@@H](Cc2ccc(O)cc2)CN2C(=N)NC[C@@H]2C)C(=N)N1 [1968-40] ?
2.42

And the next one, N=C1NC[C@H](Cc2ccccc2)N1C[C@H](Cc1ccc(O)cc1)N1C[C@H](Cc2ccc(O)cc2)NC1=N [1968-6] ?
3.54

And the next one, N=C1NC[C@H](Cc2ccccc2)N1C[C@H](Cc1ccccc1)N1C[C@H](Cc2ccccc2)NC1=N [1968-65] ?
4.18

And the next one, Cc1cc(O)cc(C)c1C[C@H]1CNC(=N)N1C[C@H](Cc1ccccc1)N1C[C@H](CC(C)C)NC1=N [1968-51] ?
2.81

And the next one, Cc1cc(O)cc(C)c1C[C@H]1CNC(=N)N1C[C@H](CC(C)C)N1C[C@H](CC(C)C)NC1=N [1968-59] ?
2.50

* * *

- System tested: delta-opioid receptor (DOR) (Rattus norvegicus, UniProt P33533)
- Construct: Rat cortices were homogenized using 50 mM Tris, pH 7.4, 10 mM MgCl2-6H2O, 200 µM PMSF; from tissue; host or cells: rat cortex membranes
- Assay protocol: DOR radioligand competition binding assay ([3H]-DPDPE)
- Details: Delta screening results, mean of both Ki; unit inferred; read-out: MEAN (Ki)
- Experimental: DOR binding assay: Rat cortices were homogenized using 50 mM Tris, pH 7.4, 10 mM MgCl2-6H2O, 200 µM PMSF, centrifuged and incubated as above. Each assay tube contained 2 nM [^3H]-DPDPE. Assay tubes were incubated for 2.5 h at 25 °C. […] All three binding assays were terminated by filtration through GF/B filters, soaked in 5 mg/mL bovine serum albumin, 50 mM Tris, pH 7.4, on a Tomtec Mach II Harvester 96. […] Bound radioactivity was counted on a Wallac Betaplate Liquid Scintillation Counter. […]
Task for the reader: assign each of the following compounds its reported Ki.
// return numeric value only (unit: µM, not printed)

Given the entry Cc1cc(O)cc(C)c1C[C@@H](CN1C(=N)NC[C@@H]1C)N1C[C@H](Cc2ccc(O)cc2)NC1=N [1968-16] , report its measured Ki.
0.697

And the next one, N=C1NC[C@H](Cc2ccc(O)cc2)N1C[C@H](Cc1ccccc1)N1C[C@H](Cc2ccccc2)NC1=N [1968-17] ?
7.1

And the next one, N=C1NC[C@H](Cc2ccccc2)N1C[C@H](Cc1ccccc1)N1C[C@H](Cc2ccc(O)cc2)NC1=N [1968-2] ?
8.1

And the next one, N=C1NC[C@H](Cc2ccccc2)N1C[C@H](Cc1ccccc1)N1C[C@H](Cc2ccccc2)NC1=N [1968-65] ?
7.32

* * *

- System tested: kappa-opioid receptor (KOR) (Cavia porcellus, UniProt P41144)
- Construct: Guinea pig cortices and cerebella were homogenized using 50 mM Tris, pH 7.4; from tissue; host or cells: guinea pig cortex and cerebellum membranes
- Assay protocol: KOR radioligand competition binding assay ([3H]U69,593)
- Design: species or system guinea pig
- Details: Kappa screening results, experiment 2; unit inferred; read-out: Ki (Exp 2)
Task for the reader: assign each of the following compounds its reported log10 of Ki.
Please interpret these as log10 of Ki where Ki is in µM.

Checklist item: log10 of Ki tested on kappa-opioid receptor (KOR) (Cavia porcellus, UniProt P41144), entry N=C1NC[C@H](Cc2ccc(O)cc2)N1C[C@H](Cc1ccc(O)cc1)N1C[C@H](Cc2ccc(O)cc2)NC1=N [1968-70] , value?
0.74

And the next one, CC(C)C[C@H]1CN([C@@H](Cc2ccccc2)CN2C(=N)NC[C@@H]2C)C(=N)N1 [1968-35] ?
1.72

And the next one, Cc1cc(O)cc(C)c1C[C@H]1CNC(=N)N1C[C@H](Cc1ccccc1)N1C[C@H](Cc2ccc(O)cc2)NC1=N [1968-50] ?
0.24

And the next one, CC(C)C[C@H]1CN([C@@H](CC(C)C)CN2C(=N)NC[C@@H]2C)C(=N)N1 [1968-43] ?
1.72

And the next one, Cc1cc(O)cc(C)c1C[C@H]1CN([C@@H](Cc2c(C)cc(O)cc2C)CN2C(=N)NC[C@@H]2Cc2c(C)cc(O)cc2C)C(=N)N1 [1968-64] ?
0.20

And the next one, CC(C)C[C@@H](CN1C(=N)NC[C@@H]1Cc1ccc(O)cc1)N1C[C@H](Cc2ccccc2)NC1=N [1968-25] ?
0.52

And the next one, N=C1NC[C@H](Cc2ccc(O)cc2)N1C[C@H](Cc1ccccc1)N1C[C@H](Cc2ccc(O)cc2)NC1=N [1968-18] ?
0.56
